Reported pIC50 values for a set of compounds
Test system: P. falciparum 3D7 growth, pLDH absorbance
Test: blood-stage malaria parasite growth potency – strain 3D7, dose response (AID 2305)
Give only the number. pIC50 is defined as minus log10 of concentration in molar units.

Example compounds with recorded pIC50:
C=C1N(C)c2cc([N+](=O)[O-])c(N)cc2C1(C)C; 6.31
CC(=O)N(C)/N=C/[C@H](CCc1ccccc1)NC(=O)[C@H](CC(C)C)NC(=O)c1cccc(OCCN2CCOCC2)c1; 6.48

Could you please provide reported pIC50 for "CC(C)(CC1CCCCC1)NC(=O)[C@H](CC1CCCCC1)Nc1ccc(C#N)c2ccccc12" ? Thanks!
6.23

The values you see were collected from PubChem BioAssay AID2305.
